Data provenance: PubChem BioAssay (NCI)

# Test system: UO-31 renal
# EXPERIMENT: NCI tumour cell line growth inhibition, 48 h; in the data active means GI50 below about 0.43 µM; inactive means the rest
Your reply should match one of these outcome classes. yes (1) for active, no (0) for inactive

Take a look at these entries with their results.
- MOLECULE: "CCC(=C(c1ccc(OCCN(C)C)cc1)c1ccc(OCCN(C)C)cc1)c1ccc(Cl)cc1"
  TGT: "UO-31 renal"
  QUALITATIVE LABEL: "no (0)"
- MOLECULE: "CCCc1cc2cc(-n3nc(CC)c4c3CC(C)(C)CC4=O)cc(NC3CCC(O)CC3)c2c(=O)[nH]1 (centres undefined)"
  TGT: "UO-31 renal"
  QUALITATIVE LABEL: "no (0)"
- MOLECULE: "O=C(NCCCNc1cc(-c2cn(-c3ccccc3)nc2-c2cccc(O)c2)ccn1)Nc1ccc(F)cc1"
  TGT: "UO-31 renal"
  QUALITATIVE LABEL: "no (0)"

Here's the next entry for you.
[in] Status in this test for Oc1cccc2ccc(-c3nnc(SCc4ccc(O)c5ncccc45)n3-c3ccccc3)nc12 ?
[out] yes (1)

---

# Tested on: HCT-116 colon
# EXPERIMENT: NCI tumour cell line growth inhibition, 48 h
RECORDED METRIC: TGI (µM)
The reply should be a number in µM, with the unit left off.

- SMILES STRUCTURE: "CCC(=C(c1ccc(OCCN(C)C)cc1)c1ccc(OCCN(C)C)cc1)c1ccc(Cl)cc1"
  RESULT NUMBER: 6.24

// next item, TGI requested
[in] Return TGI (reported value) for this compound: Oc1cccc2ccc(-c3nnc(SCc4ccc(O)c5ncccc45)n3-c3ccccc3)nc12
[out] 9.38

---

Below, each entry is listed alongside its reported TGI.
# Test system: PC-3 prostate
# EXPERIMENT: NCI tumour cell line growth inhibition, 48 h
The reply should be a number in µM, with the unit left off.

- SMILES STRUCTURE: "O=C(NCCCNc1cc(-c2cn(-c3ccccc3)nc2-c2cccc(O)c2)ccn1)Nc1ccc(F)cc1"
  UNIT ABBREV: "µM"
  TGI: 8.92

// next item, TGI requested
[in] Return TGI (reported value) for this compound: CCC(=C(c1ccc(OCCN(C)C)cc1)c1ccc(OCCN(C)C)cc1)c1ccc(Cl)cc1
[out] 4.56

---

Below, each entry is listed alongside its reported TGI.
# Tested on: A498 renal
# EXPERIMENT: NCI tumour cell line growth inhibition, 48 h

Known TGI results, listed for orientation:
- MOLECULE: "Cc1cccc(/C=C/C(=O)Nc2ncc(Cc3cccc(C)c3)s2)c1"
  RESULT: "> 100 µM"
- MOLECULE: "Oc1cccc2ccc(-c3nnc(SCc4ccc(O)c5ncccc45)n3-c3ccccc3)nc12"
  RESULT: "> 31 µM"
- MOLECULE: "COc1cc(OC)c(/C=C/S(=O)(=O)Cc2ccc(OC)c(NC(=O)CCC(=O)NO)c2)c(OC)c1"
  RESULT: "0.0794 µM"

// next item, TGI requested
[in] // fetch TGI for CCCc1cc2cc(-n3nc(CC)c4c3CC(C)(C)CC4=O)cc(NC3CCC(O)CC3)c2c(=O)[nH]1 (centres undefined) ; system: A498 renal
[out] > 100 µM

---

# Tested on: HCT-15 colon
# EXPERIMENT: NCI tumour cell line growth inhibition, 48 h
RECORDED METRIC: TGI

Known TGI results, listed for orientation:
- COMPOUND: "CCC(=C(c1ccc(OCCN(C)C)cc1)c1ccc(OCCN(C)C)cc1)c1ccc(Cl)cc1"
  TGT: "HCT-15 colon"
  RESULT: "2.67 µM"
- COMPOUND: "Oc1cccc2ccc(-c3nnc(SCc4ccc(O)c5ncccc45)n3-c3ccccc3)nc12"
  TGT: "HCT-15 colon"
  RESULT: "> 37.1 µM"
- COMPOUND: "COc1cc(OC)c(/C=C/S(=O)(=O)Cc2ccc(OC)c(NC(=O)CCC(=O)NO)c2)c(OC)c1"
  TGT: "HCT-15 colon"
  RESULT: "> 100 µM"

// next item, TGI requested
[in] Return TGI (reported value) for this compound: CCCc1cc2cc(-n3nc(CC)c4c3CC(C)(C)CC4=O)cc(NC3CCC(O)CC3)c2c(=O)[nH]1 (centres undefined)
[out] > 100 µM
